Ref: the supplement of paper PMC4466140

# MEASURED_ON: SpRvs167
# ASSAY_TEXT: SPOT peptide array binding signal intensity (averaged, normalized) (arbitrary units (background-subtracted, floor 0; scale differs between SH3 domains)); higher = stronger binding of the SH3 domain to the peptide
Response key: condition met means SPOT peptide array binding signal intensity >= 200; condition not met means SPOT peptide array binding signal intensity < 200.

{"BINDER": "SRQAIPPPVPNRPGG", "ASSIGNED_LABEL": "condition met"}
{"BINDER": "GKFIPSRPAPKPPSS", "ASSIGNED_LABEL": "condition not met"}
{"BINDER": "FSRRQSMDIPSKNRN", "ASSIGNED_LABEL": "condition not met"}
{"BINDER": "RFKRHRLEFPFNESE", "ASSIGNED_LABEL": "condition not met"}
{"BINDER": "LPMNIQPDLPPRKIM", "ASSIGNED_LABEL": "condition met"}
{"BINDER": "RKQRSIPLSPIVPES", "ASSIGNED_LABEL": "condition not met"}
{"BINDER": "ISRRRLPVIMHRLKM", "ASSIGNED_LABEL": "condition not met"}
